test system: MDAMB468; test: cell proliferation (confluence) relative to DMSO control; higher = less growth inhibition; conditions: 5 uM; 6 d
Measured cell proliferation, listed per entry for reference.
# answer = value followed by unit

Molecule: O=C(/C=C/N1C[C@H]2C[C@@H]1CN2c1ccccn1)c1ccccc1O
cell proliferation: 75.6%
--
Molecule: CN(C)[C@H]1CN(C2CCc3cccc(F)c32)C[C@@H]1c1ccc(N2CCN(S(C)(=O)=O)CC2)cc1 (stereo partly drawn)
cell proliferation: 62.7%

Could you tell me which cell proliferation is on file for `CCn1cc(-c2cccc(C(F)(F)F)c2)c2sc(C(=N)NC3CCS(=O)(=O)CC3)cc2c1=O` ?
29.1%
